- System: Saccharomyces cerevisiae;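 note: PSI is a weighted mean of sequencing reads over stability bins, variants kept only with over 10 reads, mCherry proximal and sfGFP distal, peptide attached via GGGS linker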
- Assay Remarks: protein stability index of tFT-peptide fusion (C-terminal peptide) (PSI (0-1 scale)); higher = more stable (slower turnover)
- Condition Notes: genetic background: das1 deletion; temperature: 37 C
# if value of protein stability index reaches 0.4, tag Satisfied; if it stays below, tag Not satisfied

• FWLFAFVIRKHI = Satisfied
• VFFHFFVCWRFV = Not satisfied
• FFDLSLYSLCLC = Satisfied
• LWFRGGYLFFVV = Satisfied
• FFRPWRLVGCLV = Not satisfied
• LFLSFLLFVLAF = Satisfied
• TFLVWSLMAGDR = Satisfied
• LFLSIFFFHLLF = Satisfied

Continue with the sequence presented below.
# input Tell me whether protein stability index is at least 0.4 here: LYLCLVSPVVVL
# output Not satisfied
